This collection of values is drawn from patent US20250206732A1.

- Assay system: AsPC-1 HiBiT-KRASG12D (Homo sapiens, UniProt P01116, G12D)
- Construct: insert the HiBiT tag onto the N-terminus of one or more of the endogenous KRAS alleles; endogenous in cells; host or cells: AsPC-1 (ATCC CRL-1682), CRISPR-Cas9 knock-in clone, one tagged allele
- Sequence (P01116 1-188 isoform P01116-2 G12D): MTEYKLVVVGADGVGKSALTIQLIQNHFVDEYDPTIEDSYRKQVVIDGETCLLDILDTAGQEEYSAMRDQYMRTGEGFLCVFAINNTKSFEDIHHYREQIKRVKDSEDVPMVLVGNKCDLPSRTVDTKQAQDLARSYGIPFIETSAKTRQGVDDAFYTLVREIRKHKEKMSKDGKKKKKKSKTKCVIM
- Assay info: HiBiT degradation assay (G12D), AsPC-1 HiBiT-KRASG12D cells
- Type: cell-based
- Study conditions: ASPC1, AsPC-1 HiBiT-KRASG12D cells, 24 hours treatment, maximum degradation observed
Parameter: Dmax

{"Molecule": "CCc1cccc2cc(O)cc(-c3ncc4c(N5CC6CCC(C5)N6)nc(OCCN5CC[C@H]6[C@H](CCN6c6cc([C@H](C(=O)N7C[C@H](O)C[C@H]7C(=O)N[C@@H](C)c7ccc(-c8scnc8C)cc7)C(C)C)on6)C5)nc4c3F)c12 (relative stereo) [Compound 73]", "Value": "80 to 100%"}
{"Molecule": "CCc1cccc2cc(O)cc(-c3ncc4c(N5CC6CCC(C5)N6)nc(OC[C@@]56CCCN5[C@H](CN5CCC(F)(COc7cc([C@H](C(=O)N8C[C@H](O)C[C@H]8C(=O)N[C@@H](C)c8ccc(-c9scnc9C)cc8)C(C)C)on7)CC5)CC6)nc4c3F)c12 [Compound 335]", "Value": "80 to 100%"}
{"Molecule": "CCc1cccc2cccc(-c3ncc4c(N5CC6CCC(C5)N6)nc(OC[C@@H]5CC[C@@H](COC(=O)N6CCN(c7cc([C@H](C(=O)N8C[C@H](O)C[C@H]8C(=O)N[C@@H](C)c8ccc(-c9scnc9C)cc8)C(C)C)on7)[C@H](C)C6)N5C)nc4c3F)c12 [Compound 222]", "Value": "60 to 80%"}
{"Molecule": "C#Cc1c(F)ccc2cc(O)cc(-c3ncc4c(N5CC6CCC(C5)N6)nc(OCCN5CCC(CN6CCN(c7cnc(C(=O)N[C@H](C(=O)N8C[C@H](O)C[C@H]8C(=O)N[C@@H](C)c8ccc(-c9scnc9C)cc8)C(C)(C)C)cn7)CC6)CC5)nc4c3F)c12 [Compound 179]", "Value": "80 to 100%"}

----------
- Assay system: AsPC-1 HiBiT-KRASG12D (Homo sapiens, UniProt P01116, G12D)
- Construct: insert the HiBiT tag onto the N-terminus of one or more of the endogenous KRAS alleles; endogenous in cells; host or cells: AsPC-1 (ATCC CRL-1682), CRISPR-Cas9 knock-in clone, one tagged allele
- Assay info: HiBiT degradation assay (G12D), AsPC-1 HiBiT-KRASG12D cells
- Format: cell-based
- Study conditions: ASPC1, AsPC-1 HiBiT-KRASG12D cells, 24 hours treatment, maximum degradation observed
Parameter: Dmax

{"Compound": "C#Cc1c(F)ccc2cccc(-c3ncc4c(N5CC6CCC(C5)N6)nc(OC[C@@]56CCCN5[C@@H](COC(=O)N5CCN(c7cc([C@H](C(=O)N8C[C@H](O)C[C@H]8C(=O)N[C@@H](C)c8ccc(-c9scnc9C)cc8)C(C)C)on7)CC5)CC6)nc4c3F)c12 (relative stereo)", "Value": "60 to 80%"}
{"Compound": "C#Cc1c(F)ccc2cc(O)cc(-c3ncc4c(N5CC6CCC(C5)N6)nc(OCCN5CCC(F)(CN6CCN(c7cc([C@H](C(=O)N8C[C@H](O)C[C@H]8C(=O)N[C@@H](C)c8ccc(-c9ccnn9C)cc8)C(C)C)on7)CC6)CC5)nc4c3F)c12", "Value": "80 to 100%"}
{"Compound": "CCc1cccc2cc(O)cc(-c3ncc4c(N5CC6CCC(C5)N6)nc(OC[C@]56CCCN5[C@H](COC(=O)N5C[C@H](C)N(c7cc([C@@H](C(=O)N8C[C@H](O)C[C@H]8C(=O)N[C@@H](C)c8ccc(-c9scnc9C)cc8)C(C)C)on7)C[C@H]5C)CC6)nc4c3F)c12", "Value": "20 to 60%"}
{"Compound": "CCc1cccc2cc(O)cc(-c3ncc4c(N5CC6CCC(C5)N6)nc(OC[C@@]56CCCN5[C@H](COC(=O)N5CCN(c7cc([C@H](C(=O)N8C[C@H](O)C[C@H]8C(=O)N[C@@H](C)c8ccc(-c9scnc9C)cc8)C(C)C)on7)C[C@@H]5C)CC6)nc4c3F)c12", "Value": "80 to 100%"}
